Data origin: patent EP2386565A2

System under test: CCR5 (human), P51681
Sequence (P51681 whole entry): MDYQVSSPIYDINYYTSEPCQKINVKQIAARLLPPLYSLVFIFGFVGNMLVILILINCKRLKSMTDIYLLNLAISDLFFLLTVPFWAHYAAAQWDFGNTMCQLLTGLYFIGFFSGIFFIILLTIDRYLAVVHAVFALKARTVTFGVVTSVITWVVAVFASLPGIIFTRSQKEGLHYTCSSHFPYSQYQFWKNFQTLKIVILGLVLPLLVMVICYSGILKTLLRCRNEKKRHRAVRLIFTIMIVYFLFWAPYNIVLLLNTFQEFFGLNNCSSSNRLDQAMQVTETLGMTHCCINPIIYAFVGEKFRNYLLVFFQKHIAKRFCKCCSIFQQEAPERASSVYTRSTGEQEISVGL
Protocol text: not stated; given as affinity constant
No end group written: not given here.

| Binder | Kd |
| --- | --- |
| VAEKPCKSSTIRRYS (not fully specified (some residues)) [LRD peptide 2(1-15)[MCP-1]] | < 100 nM |
